test: Plasma concentration of zonarol after oral or intravenous administration in mice (HPLC-FI, non-compartmental analysis); format: in vivo; settings: male, ddY, mouse, plasma, iv, i.v. 10 mg/kg, 0 to 240 min, n = 6, mean ± SD, read-out: AUC (AUC0-240) (converted)
TEST_READOUT: AUC(0-t) (ng·h/mL)
Your answer is read as ng·h/mL, so omit the unit and give the number.

Task: Return reported AUC(0-t). Input compound: C=C1CC[C@@H]2C(C)(C)CCC[C@@]2(C)[C@@H]1Cc1cc(O)ccc1O [zonarol]
Result: 608

* * *

Experiment: Plasma concentration of zonarol after oral or intravenous administration in mice (HPLC-FI, non-compartmental analysis)
Type: in vivo
Details: male, ddY, mouse, plasma, po, p.o. 100 mg/kg, n = 5, mean ± SD
Method: HPLC analysis was carried out on a Shimadzu-20A series instrument (Shimadzu, Japan) connected to a fluorescence detector (RF-10A xl, Shimadzu, Japan). The signals from the fluorescence system were transmitted to LC Solution software for the purposes of analyzing and calculating the peak areas. Chromatographic separation was carried out on an RPAQUEOUS-AR-5 (4.6 × 250 mm) column. […] Data were expressed as the mean ± standard deviation (SD) for the in vitro and the animal experiments. […]
TEST_READOUT: Tmax (h)
Your answer is read as h, so omit the unit and give the number.

Task: Return reported Tmax. Input compound: C=C1CC[C@@H]2C(C)(C)CCC[C@@]2(C)[C@@H]1Cc1cc(O)ccc1O [zonarol]
Result: 1.25
